experiment: soluble on expression in E. coli; label from the status in PepcDB or PDB records

SEQUENCE RECORD	soluble on expression in E. coli
MEIGTVTSQEEKLAYEKSIEMAGNYANQFDAQMEANQAIARTLACTMAEYGSQDREEAMSIIKRILNENPQLIGVYLGYEPDAFDGRDKNYINAPGHDSTGRFVPYCNKINGPVIIEPLVHYDSSDYYQLPKTTGKDTLTEPYFYEGIFMVSYDSPIFKNGEFAGIAGVDVPLEYVDDVASSIRTFDTGYAFMVSNTGIFLSHPTQKNWIGEKSLSDFDVEEIKNAASDIREGIGGHVEIKDPITGKTVIMFYEPVKTGDFSFVLVVPKEEMLAGVKDLRDRLLEHHHHHH	soluble
SKAWLHQYSVVGRKIPTQEEPEPPIYRLKIFAPNVVNAKSRFWYFLRKLKRVKKSSGEILNISEIFEKKSTQVKNYGIWIRYKSRSDTINMYREYRDVTVNGAVEQMYKDMSGRHRARWSSIWVLKAMPVAAKDCRRSKVTQFHDSKIKFALPHMRPRAPLKKYNTPFKAKRPTTIVQ	soluble

###

assay: soluble on expression in E. coli; label from the status in PepcDB or PDB records

SEQUENCE RECORD	soluble on expression in E. coli
MGSDKIHHHHHHMNKANTVDTSTEAVERVAKEISGLASREAVSMIQGWEDAFELYLKAADQLSALAAERDTLANQVEDCARECAKLAEEIQRLQAQLAETRASLYALEKGVWRDGYPDKISGSEWFIALLEDNRRVVLRSLPEEHSYDYTTADDTYLAAWKIKRWMQFPDANFIAPDTIVHTTVERIEQIKEEARNAALEEAAEVVARIKKPTIPPMFMGQTRAEAYDMGQHNACESKAELIRTLKSEPAPHPDCPECSGSGMRDSGGVQPWGDHIDAPCDCENAPAPRQSVQKAADNLAKGLRSAGYFIPSSIIFDVMVQKKSAS	not soluble
MEHPEGEDPTLLPPALAARALGVSPATLRRYAALWERLVGPLPRDPRGGRLWPKEALARLRAAREAHLREGLPLEEALARVQGDFPALALPSEGEALALLRALAERLERVEGELRALREENARLREALKALEPPRRRPWWRFWGH	soluble
MAPASILCCDTDNRRPQMKLTGGCYCGALRYEAEGEPMLKAQCHCRACQSYSGGAPNLFMVMPAAGFRYVKGTPKSFRLEDRPDRVTRDFCATCGTGVASHRPGLPAVILKIGTLDDPALFKGPRAAVFAAEKQAFHIIPEGVHAFDGLPPT	not soluble
PVMHPHGAPPNHRPWQMKDLQAIKQEVSQAAPGSPQFMQTIRLAVQQFDPTAKDLQDLLQYLCSSLVASLHHQQLDSLISEAETRGITSYNPLAGPLRVQANNPQQQGLRREYQQLWLAAFAALPGSAKDPSWA	soluble

###

assay: soluble on expression in E. coli; label from the status in PepcDB or PDB records
ATTRIBUTE MEASURED: soluble on expression in E. coli

SEQUENCE RECORD	ATTRIBUTE MEASURED	ENDPOINT RESULT
MGGSHHHHHHGMASALLDIECFTYLHRALESSIAPIVIFASNRGNCVIRGTEDITSPHGIPLDLLDRVMIIRTMLYTPQEMKQIIKIRAQTEGINISEEALNHLGEIGTKTTLRYSVQLLTPANLLAKINGKDSIEKEHVEEISELFYDAKSSAKILADQQDKYMK	soluble on expression in E. coli	not soluble
MSLSMLPSFGFTQEQVACVCEVLQQGGNLERLGRFLWSLPACDHLHKNESVLKAKAVVAFHRGNFRELYKILESHQFSPHNHPKMQQLWLKAHYVEAEKLRGRPLGAVGKYRVRRKFPLPRTIWDGEETSYCFKEKSRGVLREWYAHNPYPSPREKRELAEATGMTTTQVSNWFKNRRQRDRAAEAKERENTENEGHHHHHH	soluble on expression in E. coli	not soluble
HVKVGFSPEKLRPYTTMPADFQQFWENQKAELAKFPLTYTKEHVKKYSTDQIDCYLIKLQVNQRGQSIYGYLFYPKKEGKYPVVLCPPGAGIKTIKEPLRHKYYAEQGCIRFEIEIHGLNPEMSEEEFKEISAAFNGRENGYLSNGLDSRDNYYMKRVYLACVRSIDLLTSLPEWDGKNVVVQGGSQGGALALVTAGLDQRVTACVANHPALSDMAGYKAGRAGGYPHFFRNTVDMDTPEKIRTMAYYDVVNFAQLIRADTYMTWGFNDNVCPPTTSYIVYNVLNCPKEALITPINEHWTSSDTEYGHLLWIKKHLK	soluble on expression in E. coli	not soluble

Recorded values, source the DeepSol protein solubility set.
